Provenance of the data: patent US20240084011A1

TARGET ENTITY: recombinant mouse CTLA-4 protein (mouse) (UniProt P09793)
Sequence (P09793 36-161 limits assumed): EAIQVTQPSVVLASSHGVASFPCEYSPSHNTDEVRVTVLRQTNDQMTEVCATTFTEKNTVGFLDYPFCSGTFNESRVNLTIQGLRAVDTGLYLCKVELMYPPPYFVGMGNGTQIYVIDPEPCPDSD
EXPERIMENT SUMMARY: SPR (Pioneer FE, OneStep), 25 C; 3xFLAG scFv captured by anti-FLAG M2, mouse CTLA-4 as analyte
MEASUREMENT TYPE: Kd (nM)
// note: answer is a bare numeric in nM

Record summary for 78-8D22 scFv (scFv, part only; not given: Linker, domain order, 3xFLAG tag, V domains shown, not shown: another chain or arm of the molecule; small tags and cut ends) VH: EVQLVESGGGLVQPGGSLRLSCAASGFTFSSYVMHWVRQAPGKGLEWVSAISWSGSGTYYADSVKGRFTISRDNSKNTLYLQMNSLRAEDTAVYYCARGRLFGLARYGEAFDVWGQGTLVTVSS VL: DIQMTQSPSSLSASVGDRVTITCQASKDISNYLNWYQQKPGKAPKLLIYDASNLETGVPSRFSGSGSGTDFTFTISSLQPEDIATYYCQQFNSFALTFGQGTKVEIK : reported Kd = 0.37

Now let's try a different one.
What the record says about 78-8D7 scFv (scFv, part only; not given: Linker, domain order, 3xFLAG tag, V domains shown, not shown: another chain or arm of the molecule; small tags and cut ends) VH: EVQLVESGGGLVQPGGSLRLSCAASGFTFSSYVMHWVRQAPGKGLEWVSAISWSGAGTYYADSVKGRFTISRDNSKNTLYLQMNSLRAEDTAVYYCARGRLFGRALYGEAFDVWGQGTLVTVSS VL: DIQMTQSPSSLSASVGDRVTITCQASKDISIYLNWYQQKPGKAPKLLIYDAFNLETGVSSRFSGSGSGTDFTFTISSLQPEDIATYYCQQFNSFPLTFGQGTKVEIK : Kd is 0.39
